- System: Primary T Cell
- method: T cell enhancement of cytokines: IL2 measurement (HTRF) in expanded CD3+ T cells stimulated with anti-CD3/anti-CD28
- Format: cell-based, human
- details: Homo sapiens, T-cell, 24 h, plate-bound anti-CD3 and soluble anti-CD28, 24 h, read-out: IL-2 Primary T Cell EC50
Attribute: pEC50
Scale note: pEC50 = -log10(concentration in M).

compound	measuredQuantity	assayValue
C[C@@H]1OC(=O)c2ccc(Nc3cc4c(C(C)(C)N)cnc(OC5CN(C(=O)[C@@H]6C[C@@H]6F)[C@H]5C)c4cn3)nc2[C@H]1C (stereo partly drawn)	pEC50	7.75
C[C@@H]1OC(=O)c2ccc(Nc3cc4c(C(C)(C)N)ccc(OC5CN(C(=O)C6CC6)C5)c4cn3)nc2[C@H]1C	pEC50	7.96
CC[C@H](N)c1cnc(O[C@H]2C[C@@H](C(=O)N3CC(OC)C3)C2)c2cnc(Nc3ccc4c(n3)[C@@H](C)C(C)(C)OC4=O)cc12 (single isomer, unassigned)	pEC50	7.13
CC(=O)N1C[C@@H](Oc2ncc(C(C)(C)N)c3cc(Nc4ccc5c(n4)[C@@H](C)[C@H](C)OC5=O)ncc23)[C@@H]1C	pEC50	7.47
C[C@@H]1OC(=O)c2ccc(Nc3cc4c(C(C)(C)N)cnc(OC5CN(C(=O)[C@H]6C[C@H]6F)C5)c4cn3)nc2[C@H]1C	pEC50	7.77
COC[C@@](C)(N)c1cnc(O[C@@H]2CN(C(C)=O)[C@H]2C)c2cnc(Nc3ccc4c(n3)[C@@H](C)[C@H](C)OC4=O)cc12	pEC50	7.05
CC[C@@H](N)c1ccc(OC2CN(C(C)=O)C2)c2cnc(Nc3ccc4c(n3)[C@@H](C)C(C)(C)OC4=O)cc12 (stereo in doubt)	pEC50	7.00
COC[C@@](C)(N)c1cnc(OC2CN(C(C)=O)[C@H]2C)c2cnc(Nc3ccc4c(n3)[C@@H](C)C(C)(C)OC4=O)cc12 (stereo partly drawn)	pEC50	7.27

Assign pEC50 to the following record: CCC(=O)N1CC(Oc2ncc([C@](C)(N)COC)c3cc(Nc4ccc5c(n4)[C@@H](C)[C@H](C)OC5=O)ncc23)C1 7.53

Consider the compound C[C@@H]1c2nc(Nc3cc4c(C(C)(C)N)cnc(OC5CN(C(=O)N6CC(F)C6)C5)c4cn3)ccc2C(=O)OC1(C)C . State its measured pEC50. 7.70

Given the compound C[C@@H]1c2nc(Nc3cc4c(C(C)(C)N)cnc(O[C@@H]5CN(C(=O)[C@@H]6C[C@@H]6F)[C@H]5C)c4cn3)ccc2C(=O)OC1(C)C , write its reported pEC50. 7.82

Give pEC50 for CC(=O)N1CC(Oc2ncc(C(C)(C)N)c3cc(Nc4ccc5c(n4)[C@@H](C)[C@H](C)OC5=O)ncc23)C1 7.46

Please supply the value of reported pEC50 for the item CC[C@@H](N)c1ccc(OC2CN(C(=O)C3CC3)C2)c2cnc(Nc3ccc4c(n3)[C@@H](C)C(C)(C)OC4=O)cc12 (single isomer, unassigned) 6.79

Please supply the value of reported pEC50 for the item COC[C@@](C)(N)c1cnc(OC2CN(C(=O)OC)C2)c2cnc(Nc3ccc4c(n3)[C@@H](C)C(C)(C)OC4=O)cc12 6.89

Look up and report measured pEC50 for this entry: C[C@@H]1c2nc(Nc3cc4c(C(C)(C)N)cnc(OC5CC(C)(C(=O)N(C)C)C5)c4cn3)ccc2C(=O)OC1(C)C (single isomer, unassigned) 7.15

Determine its reported pEC50: CC[C@@H](N)c1cnc(OC2CN(C(=O)C3CC3)C2)c2cnc(Nc3ccc4c(n3)[C@@H](C)C(C)(C)OC4=O)cc12 (stereo in doubt) 7.24

Using the record for C[C@@H]1c2nc(Nc3cc4c(C(C)(C)N)cnc(OCCN5CCCC5=O)c4cn3)ccc2C(=O)OC1(C)C , state its measured pEC50. 7.37

For the compound CC(=O)N1C[C@@H](Oc2ncc(C(C)(C)N)c3cc(Nc4ccc5c(n4)[C@@H](C)C(C)(C)OC5=O)ncc23)[C@@H]1C , give its measured pEC50 value. 7.65

Dear colleague, please send me the reported pEC50 for C[C@@H]1OC(=O)c2ccc(Nc3cc4c(C(C)(C)N)cnc(OC5CN(C(=O)C6(C(F)(F)F)CC6)C5)c4cn3)nc2[C@H]1C when you can. 7.62

Output pEC50 of C[C@@H]1c2nc(Nc3cc4c(C(C)(C)N)cnc(O[C@H]5C[C@@H](C(=O)N6CC(F)(F)C6)C5)c4cn3)ccc2C(=O)OC1(C)C 7.66

Tell me pEC50 reported for CCC(=O)N1CC(Oc2ncc([C@](C)(N)COC)c3cc(Nc4ccc5c(n4)[C@@H](C)C(C)(C)OC5=O)ncc23)C1 7.22

Please list pEC50 recorded for the compound CCCC(C)(N)c1cnc(OC2CN(C(C)=O)C2)c2cnc(Nc3ccc4c(n3)[C@@H](C)C(C)(C)OC4=O)cc12 (single isomer, unassigned) 8.27

Item CCC(=O)N1C[C@@H](Oc2ncc(C(C)(C)N)c3cc(Nc4ccc5c(n4)[C@@H](C)C(C)(C)OC5=O)ncc23)[C@@H]1C : provide pEC50 7.75

Consider the compound CC[C@@](C)(N)c1cnc(OC2CN(C(C)=O)C2)c2cnc(Nc3ccc4c(n3)C(C)(C)COC4=O)cc12 and give its recorded pEC50. 8.02

----------
- Test system: Primary T Cell
- method: T cell enhancement of cytokines: IL2 measurement (HTRF) in expanded CD3+ T cells stimulated with anti-CD3/anti-CD28
- Type: cell-based, human
- details: Homo sapiens, T-cell, 24 h, plate-bound anti-CD3 and soluble anti-CD28, 24 h, read-out: IL-2 Primary T Cell EC50
Attribute: pEC50
Scale explanation: pEC50 corresponds to minus log10 of a concentration expressed in moles per litre.

A selection of reference data follows.
>>> df
                                   molecule  measuredquantity  assayvalue
0  CC[C@@H](N)c1cnc(OC2CN(C(=O)[C@@H]3C[C@@H]3F)C2)c2cnc(Nc3ccc4c(n3)[C@@H](C)C(C)(C)OC4=O)cc12 (single isomer, unassigned)             pEC50        7.41
1  C[C@@H]1OC(=O)c2ccc(Nc3cc4c(C(C)(C)N)cnc(OC5CN(C(=O)N(C)C)C5)c4cn3)nc2[C@H]1C             pEC50        7.36

Give the value of pEC50 reported for the following: C[C@@H]1OC(=O)c2ccc(Nc3cc4c(C(C)(C)N)cnc(OC5CN(C(=O)[C@@H]6CCCO6)C5)c4cn3)nc2[C@H]1C 7.33

Give the reported value of pEC50 for this record: CCCC(C)(N)c1cnc(OC2CN(C(C)=O)C2)c2cnc(Nc3ccc4c(n3)[C@@H](C)[C@H](C)OC4=O)cc12 (single isomer, unassigned) 8.13

Return value of pEC50 for input C[C@@H]1c2nc(Nc3cc4c(C(C)(C)N)cnc(OC5CN(C(=O)[C@H]6C[C@H]6F)C5)c4cn3)ccc2C(=O)OC1(C)C , no commentary. 7.63

Look up and state reported pEC50 for CCC(=O)N1CC(Oc2ncc(C(C)(C)N)c3cc(Nc4ccc5c(n4)[C@@H](C)C(C)(C)OC5=O)ncc23)C1 7.65

Consider the molecule C[C@@H]1OC(=O)c2ccc(Nc3cc4c(C(C)(C)N)cnc(OC5CN(C(=O)[C@@H]6C[C@@H]6F)C5)c4cn3)nc2[C@H]1C and give its recorded pEC50. 8.09

Query pEC50 for COC[C@@](C)(N)c1ccc(OC2CN(C(C)=O)C2)c2cnc(Nc3ccc4c(n3)[C@@H](C)C(C)(C)OC4=O)cc12 7.62

----------
- targetOfAssay: MAP4K1 (HPK1) (Homo sapiens, UniProt Q92918)
- Sequence (Q92918 whole entry): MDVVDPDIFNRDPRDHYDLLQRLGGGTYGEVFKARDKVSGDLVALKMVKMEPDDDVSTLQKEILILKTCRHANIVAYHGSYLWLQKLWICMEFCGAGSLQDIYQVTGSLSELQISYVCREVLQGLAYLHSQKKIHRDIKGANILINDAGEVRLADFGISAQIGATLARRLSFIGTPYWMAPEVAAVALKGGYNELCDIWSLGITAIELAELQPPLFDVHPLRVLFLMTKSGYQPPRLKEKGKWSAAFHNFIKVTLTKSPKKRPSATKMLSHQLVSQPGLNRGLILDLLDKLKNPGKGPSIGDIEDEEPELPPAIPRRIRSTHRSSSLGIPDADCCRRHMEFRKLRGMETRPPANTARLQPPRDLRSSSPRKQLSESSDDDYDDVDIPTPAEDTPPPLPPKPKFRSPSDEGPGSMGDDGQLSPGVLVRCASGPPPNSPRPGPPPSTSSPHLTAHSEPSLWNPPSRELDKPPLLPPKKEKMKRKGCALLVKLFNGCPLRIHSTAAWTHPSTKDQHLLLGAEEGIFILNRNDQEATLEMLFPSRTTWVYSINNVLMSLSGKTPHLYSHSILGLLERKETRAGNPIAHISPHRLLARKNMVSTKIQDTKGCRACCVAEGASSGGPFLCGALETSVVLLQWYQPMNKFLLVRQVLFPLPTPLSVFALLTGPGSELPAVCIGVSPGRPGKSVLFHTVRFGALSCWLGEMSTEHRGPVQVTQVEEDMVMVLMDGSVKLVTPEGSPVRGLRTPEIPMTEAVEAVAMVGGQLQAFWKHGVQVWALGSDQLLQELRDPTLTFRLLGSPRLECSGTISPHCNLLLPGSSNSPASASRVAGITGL
Rule: IC50 below 0.2 nM gives T. Equal to or above 0.2 nM gives F.

Reference set (4 entries):
>>> df
                                   compound  answerlabel
0  CC[C@@](C)(N)c1cnc(OC2CN(C(C)=O)C2)c2cnc(Nc3ccc4c(n3)[C@@H](C)C(C)(C)OC4=O)cc12            T
1  CC(=O)N1CC(Oc2ncc(C(C)(C)N)c3cc(Nc4ccc5c(n4)[C@@H](C)COC5=O)ncc23)C1 (single isomer, unassigned)            F
2  CC(=O)N1CC[C@@H](Oc2ncc(C(C)(C)N)c3cc(Nc4ccc5c(n4)[C@@H](C)[C@H](C)OC5=O)ncc23)C1            F
3  CO[C@H](C)C(=O)N1CC(Oc2ncc(C(C)(C)N)c3cc(Nc4ccc5c(n4)[C@@H](C)C(C)(C)OC5=O)ncc23)C1 (single isomer, unassigned)            F

Record CC[C@@](C)(N)c1cnc(OC2CN(C(C)=O)C2)c2cnc(Nc3ccc4c(n3)C(C)(C)COC4=O)cc12 : is its IC50 strictly below 0.2 nM? F
